Data provenance is PubChem BioAssay AID686940.

Could you please report measured inhibition for the items listed next?
# experimental_system: COUP transcription factor 2 (Homo sapiens) (UniProt P24468)
# Sequence (P24468 whole entry, looked up): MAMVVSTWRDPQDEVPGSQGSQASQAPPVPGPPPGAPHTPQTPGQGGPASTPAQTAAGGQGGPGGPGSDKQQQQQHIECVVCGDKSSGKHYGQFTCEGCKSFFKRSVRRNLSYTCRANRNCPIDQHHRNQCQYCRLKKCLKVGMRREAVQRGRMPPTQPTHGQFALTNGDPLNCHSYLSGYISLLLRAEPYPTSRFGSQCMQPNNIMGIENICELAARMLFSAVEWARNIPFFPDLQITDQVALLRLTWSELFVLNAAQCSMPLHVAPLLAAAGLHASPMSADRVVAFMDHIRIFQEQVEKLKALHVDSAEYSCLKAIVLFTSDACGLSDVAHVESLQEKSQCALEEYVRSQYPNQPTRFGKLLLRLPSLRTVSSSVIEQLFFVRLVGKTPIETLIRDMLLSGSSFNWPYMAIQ
# experiment_description: COUP-TFII reporter suppression in human cells – cell-based, luciferase reporter, HEK293T, luminescence, primary screen (AID 686940);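 further: cells cotransfected with COUP-TFII expression vector driving the NGFI-A reporter; 0% = median of COUP-TF2 test wells and 100% = reporter-only cells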
# condition_label: HEK293T NGFI-A luciferase reporter, at 8.6 µM, hits give high values
The whole screen tested about 370,000 compounds, of which about 2,600 (0.7%) were called active. The entries come from a sample that favours actives as a whole.
Express the result in % but write the number alone.

Q: Specify inhibition for O=C(Nc1ccc(CSc2ccccc2)cc1)c1ccc(CN2CCOCC2)cc1 and stop.
A: 68.5

Q: Specify inhibition for OC[C@@H]1CN(Cc2ccncc2)C[C@H](n2cnc3c(N4CCN(c5ccccc5)CC4)ncnc32)O1 and stop.
A: 65.7

Q: Specify inhibition for CCc1ccccc1NC(=O)c1cc(-c2ccc3c(c2)OCO3)on1 and stop.
A: -0.24

Q: Specify inhibition for O=C(Nc1ccccc1C(=O)N1CCOCC1)c1ccc(CSc2ccccc2)cc1 and stop.
A: 6.62

Q: Specify inhibition for OC[C@@H]1CN(Cc2cccs2)C[C@H](n2cnc3c(Nc4ccccc4)ncnc32)O1 and stop.
A: 10.6

---

# experimental_system: COUP transcription factor 2 (Homo sapiens)
# experiment_description: COUP-TFII reporter suppression in human cells – cell-based, luciferase reporter, HEK293T, luminescence, primary screen (AID 686940);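 further: cells cotransfected with COUP-TFII expression vector driving the NGFI-A reporter; 0% = median of COUP-TF2 test wells and 100% = reporter-only cells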
# condition_label: HEK293T NGFI-A luciferase reporter, at 8.6 µM, hits give high values
Hit rate of the full screen: of about 370,000 compounds, about 2,600 (0.7%) were called active. The full list was thinned out, with actives kept by preference.
Could you please report measured inhibition for the items listed next?
Express the result in % but write the number alone.

Q: Specify inhibition for COc1cc(CC(=O)Nc2nc(-c3ccc(F)c(F)c3)cs2)cc(OC)c1OC and stop.
A: 64.1

Q: Specify inhibition for COc1ccc(C2(CNC(=O)Cc3ccc(OC)c(OC)c3)CCCC2)cc1 and stop.
A: -3.38

Q: Specify inhibition for Fc1ccc(-c2csc(-c3ccc(C4SCCS4)cc3)n2)cc1F and stop.
A: 3.02

Q: Specify inhibition for Clc1ccc(-n2c(SC/C=C/c3ccccc3)nnc2-c2ccco2)cc1 and stop.
A: 13.9

Q: Specify inhibition for COc1cc(CCC(=O)Nc2ccncc2Cl)cc(OC)c1OC and stop.
A: -12.9

Q: Specify inhibition for O=C(NC1CCC1)c1ccc(C#Cc2cccc(F)c2)c[n+]1[O-] and stop.
A: 0.7

Q: Specify inhibition for CC(C)(C)c1ccc(Oc2ccc(N)cc2)cc1 and stop.
A: 100

Q: Specify inhibition for COc1ccc(Nc2ncnc3ccc(Br)cc23)c(OC)c1 and stop.
A: 39.9

Q: Specify inhibition for CCOC(=O)C1(Cc2cccc(OC)c2)CCN(Cc2csc(C(C)=O)c2)CC1 and stop.
A: -6.31

Q: Specify inhibition for Cn1c(=O)c2c(nc(NCc3ccccc3)n2CC(N)=O)n(C)c1=O and stop.
A: 4.42

Q: Specify inhibition for COc1ccc(CC(=O)Nc2nc(-c3ccc(F)c(F)c3)cs2)cc1OC and stop.
A: 64.1

---

# experimental_system: COUP transcription factor 2 (Homo sapiens)
# experiment_description: COUP-TFII reporter suppression in human cells – cell-based, luciferase reporter, HEK293T, luminescence, primary screen (AID 686940);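 further: cells cotransfected with COUP-TFII expression vector driving the NGFI-A reporter; 0% = median of COUP-TF2 test wells and 100% = reporter-only cells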
# condition_label: HEK293T NGFI-A luciferase reporter, at 8.6 µM, hits give high values
The campaign covered roughly 370,000 compounds. About 2,600 (0.7%) were called active. The sample as a whole holds a higher share of actives than the screen did.
property_name: inhibition (%)
Express the result in % but write the number alone.

Q: Specify inhibition for Cc1ccc(-c2nc(C3CCCN(S(=O)(=O)c4ccc(Br)s4)C3)no2)cc1 (centres undefined) and stop.
A: 2.13

Q: Specify inhibition for COc1ccccc1C(=O)NC1CCCCN(C(C)C)C1=O (centres undefined) and stop.
A: 2.43

Q: Specify inhibition for COc1ccccc1CCNC(=O)C1CCN(c2nc(C)cc(C)n2)CC1 and stop.
A: 1.51

Q: Specify inhibition for Cc1ccc(-c2nnc(SCC(=O)Nc3ccc(Oc4ccccc4)cc3)n2Cc2ccco2)cc1 and stop.
A: 13.6

Q: Specify inhibition for N[C@@H](Cc1ccccc1)C(=O)N1CCC[C@@H]1C(=O)N1CCC2CCN(S(=O)(=O)c3ccccc3)CC21 (some centres undefined) and stop.
A: 2.4

Q: Specify inhibition for COC(=O)C1CN(Cc2cn(Cc3ccc(F)cc3)nn2)CCS(=O)(=O)N1Cc1ccc(Cl)cc1 (centres undefined) and stop.
A: 7.03

Q: Specify inhibition for CN(Cc1cccs1)C(=O)CN1C(=O)c2ccccc2S1(=O)=O and stop.
A: -15.9

Q: Specify inhibition for O=C(c1c(F)cccc1Cl)N1CCN(S(=O)(=O)c2ccc3c(c2)OCCCO3)CC1 and stop.
A: 18

Q: Specify inhibition for O=C(CSc1nc2sc3c(c2c(=O)n1-c1ccccc1)CCCC3)NN=Cc1ccc(OCc2ccccc2)cc1 and stop.
A: -6.12
